viability, T/C values for the molecules below.
System: 126254-015-R-J1-PDC complex spheroid growth, % test/control
method.description: Anticancer human tumor 126254-015-R-J1-PDC patient-derived soft tissue sarcoma cell line growth inhibition [Asc]
study.conditions: second compound 3.16 µM; first compound 0.0316 µM; active compounds read low

Recorded results for 2 molecules are shown here.
C=CC(=O)N1CCN(c2nc(=O)n(-c3c(C)ccnc3C(C)C)c3nc(-c4c(O)cccc4F)c(F)cc23)C(C)C1 (stereo not drawn) + Cc1c(S(C)(=O)=O)c(-c2cc(F)cc(N3CCN(c4ccc(NS(=O)(=O)c5ccc(NC(CCN6CCC(C(=O)OCCCP(=O)(O)O)CC6)CSc6ccccc6)c(S(=O)(=O)C(F)(F)F)c5)cc4)CC3)c2)c(-c2ccc(Cl)cc2)n1C(C)C :: 83.8%
Cn1ncnc1[C@H]1c2n[nH]c(=O)c3cc(F)cc(c23)N[C@@H]1c1ccc(F)cc1 + Cc1c(S(C)(=O)=O)c(-c2cc(F)cc(N3CCN(c4ccc(NS(=O)(=O)c5ccc(NC(CCN6CCC(C(=O)OCCCP(=O)(O)O)CC6)CSc6ccccc6)c(S(=O)(=O)C(F)(F)F)c5)cc4)CC3)c2)c(-c2ccc(Cl)cc2)n1C(C)C :: 57.5%

Moving on to another molecule below.
Req: Look at this molecule and give its reported viability, T/C. COc1c(OCCCN2CCOCC2)ccc2c3n(c(=NC(=O)c4cnc(N)nc4)nc12)CCN3 + Cc1c(S(C)(=O)=O)c(-c2cc(F)cc(N3CCN(c4ccc(NS(=O)(=O)c5ccc(NC(CCN6CCC(C(=O)OCCCP(=O)(O)O)CC6)CSc6ccccc6)c(S(=O)(=O)C(F)(F)F)c5)cc4)CC3)c2)c(-c2ccc(Cl)cc2)n1C(C)C
Resp: 54.9%

---

viability, T/C values for the molecules below.
System: 126254-015-R-J1-PDC complex spheroid growth, % test/control
method.description: Anticancer human tumor 126254-015-R-J1-PDC cell line growth inhibition [Asc];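 also: spheroids exposed to compound for seven days; 100% = DMSO vehicle control wells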
study.conditions: second compound 1 µM; first compound 0.1 µM; active compounds read low
Numbers only; they are read as %.

COc1c(OCCCN2CCOCC2)ccc2c3n(c(=NC(=O)c4cnc(N)nc4)nc12)CCN3 + CNC(C)C(=O)NC1CN(S(=O)(=O)c2cccc(S(=O)(=O)N3CCC4CCC(C(=O)NC(c5ccccc5)c5ccccc5)N4C(=O)C(NC(=O)C(C)NC)C3)c2)CCC2CCC(C(=O)NC(c3ccccc3)c3ccccc3)N2C1=O :: 28.3

Req: Look at this molecule and give its reported viability, T/C. O=C(c1ccc(F)c(F)c1Nc1ccc(I)cc1F)N1CC(O)([C@@H]2CCCCN2)C1 + Cc1c(S(C)(=O)=O)c(-c2cc(F)cc(N3CCN(c4ccc(NS(=O)(=O)c5ccc(NC(CCN6CCC(C(=O)OCCCP(=O)(O)O)CC6)CSc6ccccc6)c(S(=O)(=O)C(F)(F)F)c5)cc4)CC3)c2)c(-c2ccc(Cl)cc2)n1C(C)C
Resp: 79.3

Req: Thanks! And COc1c(OCCCN2CCOCC2)ccc2c3n(c(=NC(=O)c4cnc(N)nc4)nc12)CCN3 + Cc1c(S(C)(=O)=O)c(-c2cc(F)cc(N3CCN(c4ccc(NS(=O)(=O)c5ccc(NC(CCN6CCC(C(=O)OCCCP(=O)(O)O)CC6)CSc6ccccc6)c(S(=O)(=O)C(F)(F)F)c5)cc4)CC3)c2)c(-c2ccc(Cl)cc2)n1C(C)C ?
Resp: 30.4

From: PubChem BioAssay AID1963429
